Sourced from ChEMBL document CHEMBL3259777

- ASSAY_OVERVIEW: Drug metabolism in rat hepatocytes assessed as parent compound remaining after 2 hrs
- Format: ADME, cell-based, Hepatocyte
- ASSAY_SETUP: read-out: Stability
QUANTITY_KIND: remaining at 2 h

Item CCCCCCC(C)(C)c1cc(O)c2c(c1)OC(C)(C)[C@@H]1CC=C(C(=O)O)C[C@@H]21 [LENABASUM] has what recorded remaining at 2 h?
103%

###

- ASSAY_OVERVIEW: Antiinflammatory activity in LPS-induced mouse […] cells assessed as PGJ2 synthesis at 10 uM relative to control
- Type: functional, RAW264.7
QUANTITY_KIND: Activity (%)
Quick reminder: number only, in %, skip the unit.

Example cases with answers are listed next.
CCCCCCCC/C=C\CCCCCCCC(=O)NC(C)(C)C(=O)O	118
CCCCC/C=C\C/C=C\C/C=C\C/C=C\CCCC(=O)N[C@@H](C)C(=O)O	212
CCCCC/C=C\C/C=C\C/C=C\C/C=C\CCCC(=O)NCC(=O)O [ARACHIDONOYL GLYCINE]	213
CCCCC/C=C\C/C=C\C/C=C\C/C=C\CCCC(=O)NC(C)(C)C(=O)O	220
CCCCCCCCCCCCCCCC(=O)NCC(=O)O [PALMITOYL GLYCINE]	100

Item `CCCCC/C=C\C/C=C\C/C=C\CCCCC(=O)NCC(=O)O` has what recorded Activity?
203

###

- TEST_SYSTEM: Cannabinoid receptor 1 (Homo sapiens, UniProt P21554)
- Sequence (P21554 whole entry): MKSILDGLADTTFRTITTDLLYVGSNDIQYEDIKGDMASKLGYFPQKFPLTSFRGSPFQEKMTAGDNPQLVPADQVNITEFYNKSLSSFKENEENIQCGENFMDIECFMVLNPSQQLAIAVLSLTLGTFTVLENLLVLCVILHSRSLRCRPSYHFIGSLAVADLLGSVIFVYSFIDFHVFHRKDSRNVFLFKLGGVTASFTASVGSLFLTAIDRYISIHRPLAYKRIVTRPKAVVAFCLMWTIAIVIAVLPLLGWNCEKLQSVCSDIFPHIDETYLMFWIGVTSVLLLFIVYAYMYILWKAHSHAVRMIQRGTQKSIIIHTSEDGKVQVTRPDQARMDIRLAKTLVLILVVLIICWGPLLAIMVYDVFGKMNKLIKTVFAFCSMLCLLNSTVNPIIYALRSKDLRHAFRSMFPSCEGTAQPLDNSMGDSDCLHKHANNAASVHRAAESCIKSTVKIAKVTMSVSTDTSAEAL
- ASSAY_OVERVIEW: Binding affinity to CB1 receptor (unknown origin)
QUANTITY_KIND: pKi
# pKi = -log10(concentration in molar units)

Item `CCCCCCC(C)(C)c1cc(O)c2c(c1)OC(C)(C)[C@@H]1CC=C(C(=O)O)C[C@@H]21` has what recorded pKi?
8.24

###

- ASSAY_OVERVIEW: Drug metabolism in cynomolgus monkey hepatocytes assessed as parent compound remaining after 2 hrs
- Format: ADME, cell-based, Hepatocyte
- ASSAY_SETUP: read-out: Stability
QUANTITY_KIND: remaining at 2 h (%)
Quick reminder: number only, in %, skip the unit.

Item `CCCCCCC(C)(C)c1cc(O)c2c(c1)OC(C)(C)[C@@H]1CC=C(C(=O)O)C[C@@H]21` has what recorded remaining at 2 h?
86
